assay: protein stability index of a GFP-peptide fusion (GPS, HEK-293T) (PSI 1-6); higher = more stable; settings: treatment: DMSO; c terminus: a fixed tail appended;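 also: 24-mer peptide tiles fused after GFP, lentivirally expressed, FACS-sorted into six equal bins by GFP/DsRed ratio, decoded by Illumina sequencing, PSI is the read-weighted mean bin number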
# protein stability index per record follows
Keep the answer to the number alone.

Reference set (2 entries):
1. AGGELGISLNMCLLGALVLLGLGV [PBXIP1]; 2.72
2. YSENAPFHLSLFQGWMNLLNMAKK [PLD5]; 2.08

Qu. State the recorded protein stability index for this entry: CNGILTEKMEEEEQTCDPDSSLHW [ZNF396]
Ans. 5.13

Qu. State the recorded protein stability index for this entry: AKPNMIISVNGDVITIKSESTFKN [FABP4]
Ans. 3

Qu. State the recorded protein stability index for this entry: IFIIQACRGNQHDVPVIPLDVVDN [CASP6]
Ans. 2.71

Qu. State the recorded protein stability index for this entry: TAFLPDSKCLVDDGTGRMPTLKKC [GALNT9]
Ans. 4.17

Qu. State the recorded protein stability index for this entry: LVVPNKGYSSLDQSPDEKPLVALD [FAM219A]
Ans. 4.45
